Molecular target: Aldo-keto reductase family 1 member B1 (Rattus norvegicus, UniProt P07943)
pIC50: −log10 of the molar value.
metric_name: pIC50

Examples with answers:
O=S(=O)(Nc1cc(F)c(O)c(F)c1)c1ccc(C(F)(F)F)cc1
4.04
O=C(Nc1ccc(S(=O)(=O)Nc2cc(F)c(O)c(F)c2)cc1)c1ccccc1
5.10

1: COc1ccc(C(=O)Nc2ccc(S(=O)(=O)Nc3cc(F)c(O)c(F)c3)cc2)cc1
2: O=C1NOC[C@@H]1NS(=O)(=O)c1ccccc1
3: Nc1ccc(S(=O)(=O)N(Cc2ccc(Br)cc2F)c2cc(F)c(O)c(F)c2)cc1
4: CCNC(=O)Nc1ccc(S(=O)(=O)Nc2cc(F)c(O)c(F)c2)cc1
Exercise: Rank the items in ascending order with respect to pIC50. When ranking, write the labels in the order the request describes.
Solution: 2, 4, 1, 3
(2: 4.15, 4: 4.42, 1: 4.92, 3: 6.40)

----------
Tested on: Radical scavenging activity
Assay: Antioxidant activity assessed as ratio of IC50 for DPPH radical scavenging activity to concentration of DPPH
Type: functional
Let's look at some compounds and their measured Ratio.
Provide a numeric answer; units are not to be included.

COc1ccc(C(=O)Nc2ccc(S(=O)(=O)Nc3cc(F)c(O)c(F)c3)cc2)cc1
0.26
COc1ccc(S(=O)(=O)Nc2cc(F)c(O)c(F)c2)cc1
0.23
O=[N+]([O-])c1ccc(S(=O)(=O)N(Cc2ccc(Br)cc2F)c2cc(F)c(O)c(F)c2)cc1
0.31
O=S(=O)(Nc1cc(F)c(O)c(F)c1)c1ccc(-n2cccc2)cc1
0.24
O=S(=O)(Nc1cc(F)c(O)c(F)c1)c1ccc(C(F)(F)F)cc1
0.23

Exercise: Find the recorded Ratio belonging to Cc1c(C)c2c(c(C)c1O)CCC(C)(C(=O)O)O2 (centres undefined) and report it.
Solution: 0.19

Exercise: // repeat for "O=[N+]([O-])c1ccc(S(=O)(=O)Nc2cc(F)c(O)c(F)c2)cc1" and report
Solution: 0.27

Exercise: Subsequent entry: "Nc1ccc(S(=O)(=O)N(Cc2ccc(Br)cc2F)c2cc(F)c(O)c(F)c2)cc1"
Solution: 0.31

Exercise: Subsequent entry: "CCNC(=O)Nc1ccc(S(=O)(=O)Nc2cc(F)c(O)c(F)c2)cc1"
Solution: 0.28

Exercise: Then this compound: "O=S(=O)(Nc1cc(F)c(O)c(F)c1)c1ccccc1"
Solution: 0.25

Exercise: Next: "O=S(=O)(c1ccccc1)N(Cc1ccc(Br)cc1F)c1cc(F)c(O)c(F)c1"
Solution: 0.3

Exercise: Proceed to "Nc1ccc(S(=O)(=O)Nc2cc(F)c(O)c(F)c2)cc1"
Solution: 0.22

Exercise: Now the same for "O=S(=O)(c1ccccc1)N(c1cc(F)c(O)c(F)c1)S(=O)(=O)c1ccccc1"
Solution: 0.32

Exercise: Now consider "O=C(Nc1ccc(S(=O)(=O)Nc2cc(F)c(O)c(F)c2)cc1)c1ccccc1" .
Solution: 0.25

----------
Biological target: Aldo-keto reductase family 1 member B1 (Rattus norvegicus) (UniProt P07943)
Assay: Inhibition of Fischer-344 rat lens ALR2 at 100 uM
Assay type: tissue-based
Conditions: Lens of camera-type eye
metric_name: inhibition (%)

These recorded examples may help you get a feel for the data.
O=S(=O)(Nc1cc(F)c(O)c(F)c1)c1ccccc1
71.3
CS(=O)(=O)NC(=O)CNS(=O)(=O)c1ccccc1
32.9
O=S(=O)(NCc1nnn[nH]1)c1ccccc1
23.8

A: COc1ccc(S(=O)(=O)Nc2cc(F)c(O)c(F)c2)cc1
B: O=S(=O)(Nc1nnn[nH]1)c1ccccc1
C: O=C1NOC[C@H]1NS(=O)(=O)c1ccccc1
Exercise: Rank order required: inhibition, descending. Your answer should be the labels, listed in the requested order.
Solution: A, B, C
(A: 79.5%, B: 44.8%, C: 25.7%)

Reference source for all entries: ChEMBL document CHEMBL1275343
